B1: scFv; the commonest letter at each place (parent)
chain 1: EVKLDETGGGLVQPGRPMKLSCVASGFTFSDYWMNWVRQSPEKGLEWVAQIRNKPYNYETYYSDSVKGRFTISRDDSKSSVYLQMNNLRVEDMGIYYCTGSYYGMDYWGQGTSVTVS
chain 2: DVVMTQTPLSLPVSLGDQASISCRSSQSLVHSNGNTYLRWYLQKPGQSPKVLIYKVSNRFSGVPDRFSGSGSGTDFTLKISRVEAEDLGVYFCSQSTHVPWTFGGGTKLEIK

# Variants of: B1
# Experiment Description: Kd (Tite-Seq)
# Condition Context: with fluorescein; format: scFv 4-4-20, heavy + light
Reported Kd is given for each of the following variants.

Here are 8 variants together with their reported answers.
>>> df
      variant_description   test_value
0  chain 1 T28A W33R N35I      ≥ 10 µM
1            chain 1 T28R   0.00138 µM
2       chain 1 Y32R W33M      ≥ 10 µM
3       chain 1 W36M V37P      ≥ 10 µM
4            chain 1 W33V      ≥ 10 µM
5     chain 1 G100N G109R      ≥ 10 µM
6     chain 1 S101T G104F      ≥ 10 µM
7     chain 1 Y107H W108T  0.000989 µM

Quick note, Kd for chain 1 M105G D106R landed at ≥ 10 µM

For reference, reported Kd for chain 1 W36M V37W stands at ≥ 10 µM

Record chain 1 W36Y V37I . Reported Kd: 0.0205 µM

chain 1 Y102G M105C has a reported Kd of ≥ 10 µM

The variant listed as chain 1 G100N S101I has a reported Kd of ≥ 10 µM

The measured Kd associated with chain 1 T28F V37C reads 0.00158 µM

Lab book: Kd of chain 1 S101R G109Q noted as ≥ 10 µM

Recorded result, chain 1 N35W V37Q , Kd: ≥ 10 µM

The variant chain 1 T28A D31M showed Kd equal to 0.00239 µM

// chain 1 D106W G109K : Kd value = ≥ 10 µM

Reported Kd for chain 1 G100Y M105S was ≥ 10 µM

The variant listed as chain 1 T28V M34S has a reported Kd of 0.0353 µM

Briefly, Kd measured for chain 1 T28E S30I W33I : ≥ 10 µM

Looking up chain 1 W33F N35Q , I found its Kd recorded as ≥ 10 µM

Data point: chain 1 F29P V37K ; Kd = 2.01 µM

Noted for chain 1 Y107M G109Q : its Kd reads ≥ 10 µM

For reference, reported Kd for chain 1 Y32P N35Y stands at ≥ 10 µM

// chain 1 G100P M105S G109M : Kd value = ≥ 10 µM

Documented Kd of chain 1 T28M V37K : ≥ 10 µM

The recorded Kd for chain 1 G100S Y107A is ≥ 10 µM

# Kd of chain 1 D31V Y32P = ≥ 10 µM

The variant identified as chain 1 M34V registered its Kd at 0.00361 µM

Quick note, Kd for chain 1 Y103H G104F landed at ≥ 10 µM

Lab book: Kd of chain 1 T28S Y32F W36H noted as ≥ 10 µM

Input chain 1 Y32S M34K V37D . Output Kd: ≥ 10 µM

chain 1 S101I M105V yielded Kd of ≥ 10 µM
